# MEASURED_TARGET: recombinant rat PAI-1 (Rattus norvegicus, UniProt P20961)
# Sequence (P20961 24-402): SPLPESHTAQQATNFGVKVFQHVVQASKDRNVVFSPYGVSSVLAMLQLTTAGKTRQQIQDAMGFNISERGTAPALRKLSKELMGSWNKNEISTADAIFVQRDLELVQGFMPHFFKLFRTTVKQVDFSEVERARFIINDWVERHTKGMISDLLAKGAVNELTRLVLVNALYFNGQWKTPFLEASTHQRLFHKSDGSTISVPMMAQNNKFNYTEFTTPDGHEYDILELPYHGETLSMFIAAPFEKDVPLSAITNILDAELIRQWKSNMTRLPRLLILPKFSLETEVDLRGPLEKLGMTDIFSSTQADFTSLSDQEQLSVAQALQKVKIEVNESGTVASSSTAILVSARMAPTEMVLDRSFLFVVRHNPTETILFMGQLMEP
# ASSAY_NOTES: biochemical
# SETTINGS: read-out: Inhibition Rate of PAI-1 Activity (%)
Decide by inhibition at 3 µM: equal to or exceeding 80% means Condition met, less means Condition not met.

The examples below pair each entry with its known result.
CC(C)(C)c1ccc(Oc2cc(Oc3ccc(OC(F)(F)F)cc3)ccc2CCC(=O)O)cc1 [Compound 90]; Condition not met
CC(C)(C)c1ccc(Oc2cccc(-c3ccc(OC(F)(F)F)cc3)c2CCC(=O)O)cc1 [Compound 94]; Condition not met
CCCCc1ccc(CN(C(=O)C(=O)O)c2ccc(-c3ccc(C(C)(C)C)cc3)cc2)cc1 [Compound 206]; Condition met
CC(C)(C)c1ccc(COc2cc(Oc3ccc(OC(F)(F)F)cc3)ccc2CCC(=O)O)cc1 [Compound 78]; Condition not met

I'd appreciate it if you could say whether CC(C)(C)c1ccc(Oc2cccc(-c3ccc(OC(F)(F)F)cc3)c2OCC(=O)O)cc1 [Compound 113] has inhibition at 3 µM at least equal to 80%.
Condition not met
